Data origin: patent US20230303547A1

- assay: WT-MDCK in vitro flux
- Type: in vitro ADME
- setupConditions: dog, A-B
- Source text: WT-MDCK (wild-type) in vitro flux.
valueKind: Papp A→B (×10⁻⁶ cm/s)
Use ×10⁻⁶ cm/s as the unit, but write only the number.

Endpoint output: Papp A→B of COC[C@@H]1C[C@@H](NC(=O)c2ncc(-c3cc(C#N)ccc3OC3CC3)o2)CN1C#N . Value?
10.7

###

pIC50: −log10 of the molar value.
Target or system UniProt P09936: recorded pIC50 listed per item.
Sequence (P09936 whole entry, species assumed): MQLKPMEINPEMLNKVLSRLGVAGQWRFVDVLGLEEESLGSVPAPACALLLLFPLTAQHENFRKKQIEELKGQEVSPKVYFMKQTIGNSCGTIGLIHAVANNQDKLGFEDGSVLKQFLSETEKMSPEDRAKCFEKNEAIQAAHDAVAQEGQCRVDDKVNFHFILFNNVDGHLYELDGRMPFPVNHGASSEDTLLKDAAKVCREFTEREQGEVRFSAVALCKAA

INSERT INTO results (compound, valueobserved) VALUES
  ('COC[C@@H]1C[C@@H](NC(=O)c2ncc(-c3cc(C#N)ccc3OC(F)(F)F)o2)CN1C#N [Example 7]', '< 3.52'),
  ('COC[C@@H]1C[C@@H](NC(=O)c2nc(-c3cc(C#N)ccc3OC)co2)CN1C#N [Example 6]', '< 3.52');

Endpoint output: pIC50 of C[C@@H]1C[C@@H](NC(=O)c2ncc(-c3cc(C#N)ccc3OC3CC3)o2)CN1C#N [Example 1] . Value?
< 3.52
